Origin of the recorded values: paper PMC10114980

compound	melting point
CN1c2ccccc2C(=O)N(NC(=O)Nc2ccccc2)C1c1ccc(F)cc1 (stereo not shown)	230 to 232 °C
CN1CN(NC(=O)Nc2ccccc2)C(=O)c2ccccc21	240 to 241 °C
CN1c2ccccc2C(=O)N(NC(=O)Nc2ccc(F)cc2)C1c1ccc([N+](=O)[O-])cc1 (stereo not shown)	250 to 252 °C
CN1c2ccccc2C(=O)N(NC(=O)Nc2ccc(F)cc2)C1c1ccccc1 (stereo not shown)	220 to 222 °C
CN1c2ccccc2C(=O)N(NC(=O)Nc2ccccc2)C1c1ccc([N+](=O)[O-])cc1 (stereo not shown)	241 to 243 °C
CN1c2ccccc2C(=O)N(NC(=O)Nc2ccc(F)cc2)C1c1ccc(F)cc1 (stereo not shown)	214 to 216 °C
CC1N(NC(=O)Nc2ccc(F)cc2)C(=O)c2ccccc2N1C (stereo not shown)	187 to 190 °C
COc1ccc(C2N(NC(=O)Nc3ccc(F)cc3)C(=O)c3ccccc3N2C)cc1 (stereo not shown)	224 to 226 °C
CN1c2ccccc2C(=O)N(NC(=O)Nc2ccccc2)C1c1ccccc1 (stereo not shown)	180 to 181 °C
COc1ccc(NC(=O)NN2C(=O)c3ccccc3N(C)C2c2ccc(OC)cc2)cc1 (stereo not shown)	205 to 207 °C
